Where do the numbers come from? From patent US12268666B2.

- method.summary: Kinetic solubility in FaSSGF, FaSSIF and FeSSIF media
- Type: physicochemical
- study.conditions: FaSSGF (Fasted State Simulated Gastric Fluid), fassgf or other biorelevant, kinetic from dmso stock; pH 1.6 FaSSGF, 24 hours
measured.property: solubility kinetic at 24 h

Using the record for "COc1ccc(F)cc1C(=O)NCc1ccc(-c2nn([C@@H](C)C(F)(F)F)c(N)c2C(N)=O)cc1" , report its solubility kinetic at 24 h.
24 µg/mL

* * *

- method.summary: Aqueous solubility at different pH values
- Assay type: physicochemical
- study.conditions: aqueous solution, aqueous buffer; pH 6, actual media pH 6.04
measured.property: solubility (µg/mL)
Your answer is read as µg/mL, so omit the unit and give the number.

Returns the measured solubility for the input molecule. Input: "COc1ccc(F)cc1C(=O)NCc1ccc(-c2nn([C@@H](C)C(F)(F)F)c(N)c2C(N)=O)cc1"
14

* * *

- method.summary: Aqueous solubility at different pH values
- Format: physicochemical
- study.conditions: aqueous solution, simulated gastric fluid; pH 2, actual media pH 2.06
measured.property: solubility (µg/mL)
Express your answer in µg/mL, writing the number without its unit.

# get_value(readout='solubility', item= "COc1ccc(F)cc1C(=O)NCc1ccc(-c2nn([C@@H](C)C(F)(F)F)c(N)c2C(N)=O)cc1" )
15

* * *

- method.summary: Kinetic solubility in FaSSGF, FaSSIF and FeSSIF media
- Assay type: physicochemical
- study.conditions: FeSSIF (Fed State Simulated Intestinal Fluid), kinetic from dmso stock; pH 6.5 FeSSIF, 24 hours
measured.property: solubility kinetic at 24 h

Requested read-out: solubility kinetic at 24 h. Entry: "COc1ccc(F)cc1C(=O)NCc1ccc(-c2nn([C@@H](C)C(F)(F)F)c(N)c2C(N)=O)cc1"
47 µg/mL

* * *

- assayed.target: BTK wild type (Homo sapiens, UniProt Q06187)
- Sequence (Q06187 whole entry): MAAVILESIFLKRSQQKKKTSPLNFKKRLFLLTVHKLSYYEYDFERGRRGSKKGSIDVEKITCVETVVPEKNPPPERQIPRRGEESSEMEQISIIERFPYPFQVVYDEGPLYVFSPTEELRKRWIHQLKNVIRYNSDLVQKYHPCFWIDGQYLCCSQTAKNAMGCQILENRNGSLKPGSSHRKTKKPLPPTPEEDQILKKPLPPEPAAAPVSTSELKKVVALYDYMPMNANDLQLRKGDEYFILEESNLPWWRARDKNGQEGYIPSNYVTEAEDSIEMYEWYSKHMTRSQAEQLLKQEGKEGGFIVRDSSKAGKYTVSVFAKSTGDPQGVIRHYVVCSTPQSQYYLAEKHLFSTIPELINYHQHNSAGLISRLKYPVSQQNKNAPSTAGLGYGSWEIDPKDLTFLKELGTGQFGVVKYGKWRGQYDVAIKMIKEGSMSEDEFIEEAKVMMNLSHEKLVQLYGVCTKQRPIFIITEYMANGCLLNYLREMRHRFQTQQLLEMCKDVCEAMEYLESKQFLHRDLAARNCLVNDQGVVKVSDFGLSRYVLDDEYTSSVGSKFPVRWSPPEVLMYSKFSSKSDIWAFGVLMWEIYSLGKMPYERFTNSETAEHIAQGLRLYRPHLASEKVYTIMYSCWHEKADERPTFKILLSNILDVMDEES
- method.summary: Y223 autophosphorylation in HEK293 cells stably expressing BTK
- study.conditions: 2 hr treatment, signal normalized to total BTK
measured.property: pIC50
Scale explanation: pIC50 corresponds to minus log10 of a concentration expressed in moles per litre.

Need pIC50 of "COc1ccc(F)cc1C(=O)NCc1ccc(-c2nn([C@@H](C)C(F)(F)F)c(N)c2C(N)=O)cc1" , thanks.
8.07

* * *

- assayed.target: MEK2 (Homo sapiens)
- Sequence (P36507 whole entry): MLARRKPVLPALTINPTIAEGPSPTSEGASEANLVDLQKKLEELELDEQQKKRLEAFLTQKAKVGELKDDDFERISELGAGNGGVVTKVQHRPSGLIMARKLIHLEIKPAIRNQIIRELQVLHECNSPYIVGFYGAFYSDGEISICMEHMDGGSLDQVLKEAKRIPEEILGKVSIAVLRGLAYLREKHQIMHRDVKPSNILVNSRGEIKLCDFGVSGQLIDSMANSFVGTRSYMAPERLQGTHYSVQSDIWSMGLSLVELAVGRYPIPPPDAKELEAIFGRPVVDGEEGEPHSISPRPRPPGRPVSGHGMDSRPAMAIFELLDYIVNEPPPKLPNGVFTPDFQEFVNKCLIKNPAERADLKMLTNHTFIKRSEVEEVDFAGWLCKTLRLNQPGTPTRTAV
measured.property: pIC50
Note: pIC50 values are expressed as the negative base-10 logarithm of concentration in M.

Query for MEK2 (Homo sapiens): what pIC50 does the record show for "COc1ccc(F)cc1C(=O)NCc1ccc(-c2nn([C@@H](C)C(F)(F)F)c(N)c2C(N)=O)cc1" ?
7.08

* * *

- method.summary: Aqueous solubility at different pH values
- Format: physicochemical
- study.conditions: aqueous solution, aqueous buffer; pH 10, actual media pH 9.98
measured.property: solubility (µg/mL)
API: value field is a number in µg/mL; no unit string.

Which solubility value is on record for "COc1ccc(F)cc1C(=O)NCc1ccc(-c2nn([C@@H](C)C(F)(F)F)c(N)c2C(N)=O)cc1" ?
14

* * *

- method.summary: Dog pharmacokinetics, crystalline compound in suspension (Example 15 Part A)
- Type: in vivo, beagle dogs
- study.conditions: both sexes, beagle, dog, plasma, po, 30 mg/kg, beagle dogs, fasted, single PO 30 mg/kg, suspension in 0.5% HPMC
measured.property: AUC(0-t)
// unit must come after the numeric part

Entry "COc1ccc(F)cc1C(=O)NCc1ccc(-c2nn([C@@H](C)C(F)(F)F)c(N)c2C(N)=O)cc1" has what AUC(0-t)?
8180 ng·h/mL
